Catalogue of pIC50 values
Molecular target: GST-tagged ROR gamma ligand binding domain (LBD) (Homo sapiens, UniProt P51449)
Sequence (P51449 269-508 limits assumed): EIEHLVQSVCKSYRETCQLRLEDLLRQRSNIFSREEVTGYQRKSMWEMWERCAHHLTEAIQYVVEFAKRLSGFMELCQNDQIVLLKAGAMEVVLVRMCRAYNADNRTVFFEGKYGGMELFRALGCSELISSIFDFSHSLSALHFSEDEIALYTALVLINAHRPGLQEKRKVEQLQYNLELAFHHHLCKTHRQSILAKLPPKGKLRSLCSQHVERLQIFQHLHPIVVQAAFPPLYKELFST
pIC50: −log10 of the molar value.
ENDPOINT: pIC50

>  <MOLECULE>
CCS(=O)(=O)c1ccc(CC(=O)Nc2ccc(OC3(c4ccc(Cl)cc4)CCOCC3)cc2)cc1 [Example 37]

>  <RESULT>
< 7.00

$$$$
>  <MOLECULE>
CCS(=O)(=O)c1ccc(CC(=O)Nc2ccc(C#CC(C)(C)Oc3ccc(C#N)cc3)cc2)cc1 [Example 79]

>  <RESULT>
> 7.30

$$$$
>  <MOLECULE>
CCn1c(C(C)(C)Oc2ccc(Cl)c(F)c2)nc2cc(NC(=O)Cc3ccc(S(=O)(=O)CC)cc3)ccc21 [Example 87]

>  <RESULT>
> 7.30

$$$$
>  <MOLECULE>
CCS(=O)(=O)c1ccc(CC(=O)Nc2ccc(OC3(c4nnc5ccc(Cl)cn45)CCC3)cc2)cc1 [Example 27]

>  <RESULT>
7.00 to 7.30

$$$$
>  <MOLECULE>
CCS(=O)(=O)c1ccc(CC(=O)Nc2ccc(OC3(c4ccc(Cl)c(F)c4)CCCC3)c(F)c2)cc1 [Example 121]

>  <RESULT>
> 7.30

$$$$
>  <MOLECULE>
CCS(=O)(=O)c1ccc(CC(=O)Nc2ccc(OC3(c4ccc(Cl)cc4Cl)CCCCC3)cc2)cc1 [Example 134]

>  <RESULT>
> 7.30

$$$$
>  <MOLECULE>
CCS(=O)(=O)c1ccc(CC(=O)Nc2ccc3c(c2)nc(C(C)(C)Oc2ccc(C(F)(F)F)cc2)n3C)cc1 [Example 81]

>  <RESULT>
< 7.00

$$$$
>  <MOLECULE>
CCS(=O)(=O)c1ccc(CC(=O)Nc2ccc(OC3(c4ccc(F)cc4F)CCC3)c(F)c2)cc1 [Example 141]

>  <RESULT>
> 7.30

$$$$
>  <MOLECULE>
CCS(=O)(=O)c1ccc(CC(=O)Nc2ccc(OC(C)(C)c3ccc(Cl)cc3F)nc2)cc1 [Example 56]

>  <RESULT>
> 7.30

$$$$
>  <MOLECULE>
CCS(=O)(=O)c1ccc(CC(=O)Nc2ccc(OC3(c4ccc(Cl)cc4F)CC3)cc2)cc1 [Example 51]

>  <RESULT>
> 7.30

$$$$
>  <MOLECULE>
CCS(=O)(=O)c1ccc(CC(=O)Nc2ccc(OC3(c4ccc(Cl)c(F)c4)CCOCC3)cc2)cc1 [Example 38]

>  <RESULT>
> 7.30

$$$$
>  <MOLECULE>
CCn1c(C2(Oc3ccc(NC(=O)Cc4ccc(S(=O)(=O)CC)cc4)cc3)CC2)nc2cc(Cl)ccc21 [Example 24]

>  <RESULT>
< 7.00

$$$$
>  <MOLECULE>
CCS(=O)(=O)c1ccc(CC(=O)Nc2ccc(OC3(c4ccc(Cl)c(F)c4)COC3)cc2)cc1 [Example 45]

>  <RESULT>
> 7.30

$$$$
>  <MOLECULE>
CCS(=O)(=O)c1ccc(CC(=O)Nc2ccc(OC3(c4ccc(Cl)cc4Cl)CCCC3)cc2)cc1 [Example 123]

>  <RESULT>
> 7.30

$$$$
>  <MOLECULE>
CCS(=O)(=O)c1ccc(CC(=O)Nc2ccc(OC3(c4ccc(Cl)c(Cl)c4)COC3)cc2)cc1 [Example 46]

>  <RESULT>
< 7.00

$$$$

====

Biological target: GST-tagged ROR gamma ligand binding domain (LBD) (Homo sapiens, UniProt P51449)
Construct: purchased Invitrogen
Sequence (P51449 269-508 limits assumed): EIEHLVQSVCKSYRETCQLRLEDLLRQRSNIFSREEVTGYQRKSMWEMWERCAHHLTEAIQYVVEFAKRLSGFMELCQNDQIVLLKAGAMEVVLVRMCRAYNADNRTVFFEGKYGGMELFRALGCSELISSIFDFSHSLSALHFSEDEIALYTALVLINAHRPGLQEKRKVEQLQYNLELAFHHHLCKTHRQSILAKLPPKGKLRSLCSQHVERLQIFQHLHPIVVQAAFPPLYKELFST
Assay: TR-FRET assay for ROR gamma (LanthaScreen co-activator peptide recruitment)
Assay type: biochemical
Conditions: compound 1 μM; TR-FRET ratio 520/495, percent of control
Catalogue of inhibition at 1 µM values

>  <CHEMICAL_STRUCTURE>
CCS(=O)(=O)c1ccc(CC(=O)Nc2ccc(OC(C)(C)c3ccc(Cl)cc3Cl)c(F)c2)cc1

>  <UOM>
%

>  <inhibition at 1 µM>
79.3

$$$$
>  <CHEMICAL_STRUCTURE>
CCS(=O)(=O)c1ccc(CC(=O)Nc2ccc(OC3(c4ccc(Cl)c(F)c4)CCOCC3)c(F)c2)cc1

>  <UOM>
%

>  <inhibition at 1 µM>
73.6

$$$$
>  <CHEMICAL_STRUCTURE>
CCS(=O)(=O)c1ccc(CC(=O)Nc2ccc(C#CC(C)(C)Oc3ccc(Cl)cc3)cc2)cc1

>  <UOM>
%

>  <inhibition at 1 µM>
82.2

$$$$
>  <CHEMICAL_STRUCTURE>
CCS(=O)(=O)c1ccc(CC(=O)Nc2ccc(OC(C)(C)c3nc4cc(F)ccc4n3C(C)C)cc2)cc1

>  <UOM>
%

>  <inhibition at 1 µM>
79.8

$$$$
>  <CHEMICAL_STRUCTURE>
CCS(=O)(=O)c1ccc(CC(=O)Nc2ccc(OC(C)(C)c3ccc(Cl)cc3Cl)cc2)cc1

>  <UOM>
%

>  <inhibition at 1 µM>
81.3

$$$$
>  <CHEMICAL_STRUCTURE>
CCS(=O)(=O)c1ccc(CC(=O)Nc2ccc(OC3(c4ccc(Cl)c(F)c4)CCC3)nc2)cc1

>  <UOM>
%

>  <inhibition at 1 µM>
92

$$$$

====

target: GST-tagged ROR gamma ligand binding domain (LBD) (Homo sapiens, UniProt P51449)
pIC50: −log10 of the molar value.

>  <COMPOUND>
CCS(=O)(=O)c1ccc(CC(=O)Nc2ccc(OC(C)(C)c3ccc(Cl)c(Cl)c3)cc2)cc1 [Example 4]

>  <pIC50>
> 7.30

$$$$
>  <COMPOUND>
CCn1c(C(C)(C)Oc2ccc(NC(=O)Cc3ccc(S(=O)(=O)CC)cc3)cc2)nc2cc(F)ccc21 [Example 15]

>  <pIC50>
> 7.30

$$$$
>  <COMPOUND>
CCS(=O)(=O)c1ccc(CC(=O)Nc2ccc(C#CC(C)(C)Oc3ccc(Cl)c(F)c3)c(F)c2)cc1 [Example 106]

>  <pIC50>
> 7.30

$$$$
>  <COMPOUND>
CCn1c(C(C)(C)Oc2ccc(Cl)cc2Cl)nc2cc(NC(=O)Cc3ccc(S(=O)(=O)CC)cc3)ccc21 [Example 144]

>  <pIC50>
> 7.30

$$$$
>  <COMPOUND>
CCS(=O)(=O)c1ccc(CC(=O)Nc2ccc(C#CC(C)(C)Oc3ccc(F)c(F)c3)cc2)cc1 [Example 70]

>  <pIC50>
> 7.30

$$$$
>  <COMPOUND>
CCS(=O)(=O)c1ccc(CC(=O)Nc2ccc(OC3(c4ccc(F)c(F)c4)CCC3)cc2)cc1 [Example 34]

>  <pIC50>
> 7.30

$$$$
>  <COMPOUND>
CCS(=O)(=O)c1ccc(CC(=O)Nc2ccc(C#CC(C)(C)Oc3cc(F)c(F)c(F)c3)cc2)cc1 [Example 71]

>  <pIC50>
> 7.30

$$$$
>  <COMPOUND>
CCS(=O)(=O)c1ccc(CC(=O)Nc2ccc3c(c2)nc(C(C)(C)Oc2ccc(F)cc2F)n3C(C)C)cc1 [Example 117]

>  <pIC50>
< 7.00

$$$$
>  <COMPOUND>
CCS(=O)(=O)c1ccc(CC(=O)Nc2ccc(C#CCOc3ccc(Cl)cc3Cl)cc2)cc1 [Example 60]

>  <pIC50>
< 7.00

$$$$
>  <COMPOUND>
CCS(=O)(=O)c1ccc(CC(=O)Nc2ccc(OC3(c4ccc(Cl)cc4Cl)CCC3)c(F)c2)cc1 [Example 139]

>  <pIC50>
> 7.30

$$$$
>  <COMPOUND>
CCCn1c(C(C)(C)Oc2ccc(F)cc2F)nc2cc(NC(=O)Cc3ccc(S(=O)(=O)CC)cc3)ccc21 [Example 115]

>  <pIC50>
> 7.30

$$$$
>  <COMPOUND>
CCS(=O)(=O)c1ccc(CC(=O)Nc2ccc(C#CC(C)(C)Oc3c(F)cc(Cl)cc3F)cc2)cc1 [Example 75]

>  <pIC50>
> 7.30

$$$$
